- study-target: human topoisomerase I (Homo sapiens)
- Construct: purchased Topogen
- Sequence (P11387 1-765): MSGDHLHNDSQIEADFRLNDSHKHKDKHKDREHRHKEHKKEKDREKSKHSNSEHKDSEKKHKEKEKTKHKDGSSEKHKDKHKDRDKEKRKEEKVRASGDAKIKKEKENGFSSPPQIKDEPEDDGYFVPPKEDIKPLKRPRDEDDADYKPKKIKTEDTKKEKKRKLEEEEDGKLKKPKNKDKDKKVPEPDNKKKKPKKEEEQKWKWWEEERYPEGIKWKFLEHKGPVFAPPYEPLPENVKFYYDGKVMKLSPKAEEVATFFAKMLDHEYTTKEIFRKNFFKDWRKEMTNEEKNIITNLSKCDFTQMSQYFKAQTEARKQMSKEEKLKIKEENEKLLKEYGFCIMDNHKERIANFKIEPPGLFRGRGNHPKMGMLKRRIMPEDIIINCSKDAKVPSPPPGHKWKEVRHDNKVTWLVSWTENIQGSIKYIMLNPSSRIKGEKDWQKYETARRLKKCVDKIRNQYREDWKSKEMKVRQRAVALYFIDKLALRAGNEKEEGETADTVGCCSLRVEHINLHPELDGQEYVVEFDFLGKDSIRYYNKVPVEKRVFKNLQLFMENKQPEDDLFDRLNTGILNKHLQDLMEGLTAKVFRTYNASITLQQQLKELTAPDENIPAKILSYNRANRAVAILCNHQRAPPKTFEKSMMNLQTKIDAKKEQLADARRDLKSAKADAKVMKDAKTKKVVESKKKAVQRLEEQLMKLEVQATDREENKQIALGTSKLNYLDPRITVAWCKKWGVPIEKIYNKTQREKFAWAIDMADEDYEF
- method: Topoisomerase I activity (in vitro): compound-induced, topoisomerase I-mediated single strand breaks in PM2 DNA
- Type: biochemical
- test-settings: purified human topoisomerase I (Topogen), 30 minutes at 37° C., median effective concentration for inducing single strand breaks, read-out: TOPO I EC50
pEC50: −log10 of the molar value.
Label 1.0 when pEC50 is at or above 7; otherwise label 0.0.

[
  {
    "molecule": "O=C1c2c(c3c4cc(F)ccc4n(C4O[C@H]5[C@H](OC[C@H]5O)[C@H]4O)c3c3[nH]c4ccc(F)cc4c23)C(=O)N1O (stereo partly shown)",
    "study-target": "human topoisomerase I (Homo sapiens)",
    "discrete-label": 1.0
  },
  {
    "molecule": "O=C1NC(=O)c2c1c1c3ccc(F)cc3[nH]c1c1c2c2ccc(F)cc2n1[C@@H]1O[C@H](CO)[C@H]2O[C@H]2[C@H]1O",
    "study-target": "human topoisomerase I (Homo sapiens)",
    "discrete-label": 0.0
  },
  {
    "molecule": "O=C1NC(=O)c2c1c1c3cc(F)ccc3[nH]c1c1c2c2cc(F)ccc2n1[C@H]1OC2COC([C@@H]2O)[C@H]1O (stereo partly shown)",
    "study-target": "human topoisomerase I (Homo sapiens)",
    "discrete-label": 0.0
  },
  {
    "molecule": "NN1C(=O)c2c(c3c4cc(F)ccc4n([C@@H]4OC5COC([C@@H]5O)[C@H]4O)c3c3[nH]c4ccc(F)cc4c23)C1=O (stereo partly shown)",
    "study-target": "human topoisomerase I (Homo sapiens)",
    "discrete-label": 1.0
  },
  {
    "molecule": "O=C1NC(=O)c2c1c1c3cc(F)ccc3[nH]c1c1c2c2cc(F)ccc2n1[C@@H]1O[C@@H]2CO[C@H]([C@H]1O)[C@H]2O",
    "study-target": "human topoisomerase I (Homo sapiens)",
    "discrete-label": 0.0
  }
]

Req: Please tell me: is the molecule O=C1NC(=O)c2c1c1c3cc(F)ccc3[nH]c1c1c2c2cc(F)ccc2n1C1O[C@H](CO)[C@H]2O[C@H]2[C@H]1O (stereo partly shown) at or over 7 in terms of pEC50?
Resp: 1.0

Req: Please tell me: is the molecule "O=C1NC(=O)c2c1c1c3cc(F)c(F)cc3[nH]c1c1c2c2cc(F)c(F)cc2n1[C@@H]1O[C@@H]2CO[C@H]([C@H]1O)C2(F)F" at or over 7 in terms of pEC50?
Resp: 0.0

Req: Please tell me: is the molecule O=C1c2c(c3c4cc(F)ccc4n([C@@H]4OC5COC([C@@H]5O)[C@H]4O)c3c3[nH]c4ccc(F)cc4c23)C(=O)N1O (stereo partly shown) at or over 7 in terms of pEC50?
Resp: 1.0

Req: Please tell me: is the molecule "O=C1NC(=O)c2c1c1c3ccc(F)cc3[nH]c1c1c2c2ccc(F)cc2n1[C@@H]1O[C@@H]2CO[C@H]([C@H]1O)[C@@H]2O" at or over 7 in terms of pEC50?
Resp: 0.0

Req: Please tell me: is the molecule O=C1NC(=O)c2c1c1c3cc(F)ccc3[nH]c1c1c2c2cc(F)ccc2n1C1O[C@H](CF)[C@@H](F)[C@H]2O[C@@H]12 (stereo partly shown) at or over 7 in terms of pEC50?
Resp: 0.0
